Test system: Streptococcus pneumoniae
Test: microbe, parasite or virus in culture
Details: SV1
Description: Antibacterial activity against Streptococcus pneumoniae SV1 SP3
quantity: MIC (µg/mL)

INSERT INTO measurements (smi, quantity, value_measured) VALUES
  ('CCN(CC)CCCNc1n[nH]c2c1CCCc1cc(N3C[C@H](CNC(C)=O)OC3=O)ccc1-2', 'MIC', 4),
  ('CC(=O)NC[C@H]1CN(c2ccc3c(c2)CCCc2c(NCCc4ccccn4)n[nH]c2-3)C(=O)O1', 'MIC', 0.5);

[A] CC(=O)NC[C@H]1CN(c2ccc3c(c2)CCCc2c(NCc4ccccc4)n[nH]c2-3)C(=O)O1
[B] CCCNc1n[nH]c2c1CCCc1cc(N3C[C@H](CNC(C)=O)OC3=O)ccc1-2
Query string: Please compare: A and B . Report which one has the smaller MIC value. Indicate which entry you chose by stating its label.
Result string: B
(B: 0.25 µg/mL, A: 1 µg/mL)

* * *

Test: physchem
Conditions: potassium phosphate buffer, pH 6.5
Description: Aqueous solubility in potassium phosphate buffer at pH 6.5 by laser nephrometry
quantity: solubility kinetic (µg/mL)

[a] CC(=O)NC[C@H]1CN(c2ccc3c(c2)CCCc2cn[nH]c2-3)C(=O)O1
[b] CC(=O)NC[C@H]1CN(c2ccc3c(c2)CCCc2c(NC(=O)C(O)CO)n[nH]c2-3)C(=O)O1 (stereo not given in full)
Query string: Select one. Lower solubility kinetic: a or b Pick one; state its label.
Result string: a
(a: 14 µg/mL, b: 46 µg/mL)

* * *

System: Enterococcus faecalis
Test: microbe, parasite or virus in culture
Description: Antibacterial activity against Enterococcus faecalis MGH2 EF1-1
quantity: MIC (µg/mL)

[1] CC(=O)NC[C@H]1CN(c2ccc3c(c2)CCCc2c(NCCN4CCOCC4)n[nH]c2-3)C(=O)O1
[2] CNc1n[nH]c2c1CCCc1cc(N3C[C@H](CNC(C)=O)OC3=O)ccc1-2
[3] CC(=O)NC[C@H]1CN(c2ccc3c(c2)CCCc2c(N)n[nH]c2-3)C(=O)O1
[4] CC(=O)NC[C@H]1CN(c2ccc3c(c2)CCCc2cn[nH]c2-3)C(=O)O1
[5] CC(=O)NC[C@H]1CN(c2ccc3c(c2)CCCc2c(NCCN)n[nH]c2-3)C(=O)O1
Query string: Descending sort on MIC required. Give the labels in the order specified.
Result string: 5, 1, 3, 2, 4

* * *

System: Streptococcus pneumoniae
Test: microbe, parasite or virus in culture
Conditions: SV1
quantity: MIC (µg/mL)

Sample records with MIC:
INSERT INTO results (compound, quantity, value_measured) VALUES
  ('CC(=O)NC[C@H]1CN(c2ccc3c(c2)CCCc2cn[nH]c2-3)C(=O)O1', 'MIC', 0.25),
  ('CC(=O)NC[C@H]1CN(c2ccc3c(c2)CCCc2c(NC(=O)C(O)CO)n[nH]c2-3)C(=O)O1 (stereo partly specified)', 'MIC', 2),
  ('CCNc1n[nH]c2c1CCCc1cc(N3C[C@H](CNC(C)=O)OC3=O)ccc1-2', 'MIC', 0.25),
  ('CC(=O)NC[C@H]1CN(c2ccc3c(c2)CCCc2c(NCCN)n[nH]c2-3)C(=O)O1', 'MIC', 4),
  ('CC(=O)NC[C@H]1CN(c2ccc3c(c2)CCCc2c(NCCN4CCOCC4)n[nH]c2-3)C(=O)O1', 'MIC', 2);

[a] CC(=O)NC[C@H]1CN(c2ccc3c(c2)CCCc2c(Nc4ccccc4)n[nH]c2-3)C(=O)O1
[b] COCCCNc1n[nH]c2c1CCCc1cc(N3C[C@H](CNC(C)=O)OC3=O)ccc1-2
Query string: Which numeric MIC is bigger, that of a or that of b ? // output: label of the selected item
Result string: b
(b: 1 µg/mL, a: 0.5 µg/mL)

All figures here come from ChEMBL document CHEMBL1140652.
